Test system: A498 renal
Assay: NCI-60 one-dose screen, 48 h (100 = growth as untreated, 0 = no growth, -100 = all killed)
Settings: 10 µM unless noted
This is part of a sample that, as a whole, favours compounds with a hit. Of some 83,000 tested, about 20% had one in any assay. Calls of active or inactive are those of the source. Rule for the calls: active = growth percent below 10; inactive = the rest.
Please go through the items and note down their growth.

# Chem Smiles, growth
data = [
    ("Cc1cc(Cl)ccc1Nc1nc(C(F)(F)F)ccc1C(=O)N/N=C/c1ccc([N+](=O)[O-])cc1", "88.9% (inactive)"),
    ("O=C1NCCC12CCN(c1c(Cl)cncc1-c1ccc(O)cc1)CC2", "85% (inactive)"),
    ("Cc1ccc(-c2csc(NC(=O)CN3CCN(c4cc5c(cc4F)c(=O)c(C(=O)O)cn5C4CC4)CC3)n2)cc1", "7.69% (active)"),
]

For every item in the list below, what is its measured growth?
1. Cc1ccc2c3c(c(=O)[nH]c2c1)C1(C(C#N)=C(N)O3)c2cc(Br)ccc2-c2ccc(Br)cc21
2. C=C(C)[C@@H]1CC[C@]2(C(=O)NCCNCCN)CC[C@]3(C)[C@H](CC[C@@H]4[C@@]5(C)C/C(=C/c6ccncc6)C(=O)C(C)(C)[C@@H]5CC[C@]43C)[C@@H]12
3. O=C(c1ccc(-c2ccccc2)cc1)c1ccc([N+](=O)[O-])cc1
4. CCOC(=O)c1c(C)c2c(n1C)CSc1cc(C(=O)c3ccccc3)c(=O)[nH]c1-2
5. Nc1nc2c([nH]1)c1[nH]c3ccccc3c1c1[nH]c3ccccc3c21

Reply:
1. -18.8% (active)
2. 95.7% (inactive)
3. 124% (inactive)
4. 87.7% [100 µM] (inactive)
5. 134% (inactive)

Values were extracted from PubChem BioAssay (NCI).
